biological target: integrin alpha5beta1 extracellular domain Fc-fusion (Homo sapiens (Human), UniProt P05556+P08648); test: alpha5beta1-Fibronectin binding assay (competitive ELISA); settings: inhibition of integrin binding to coated fibronectin
pIC50: −log10 of the molar value.
attribute-measured: pIC50

Here is how some molecules turned out for pIC50.
COc1ccnc(NCC2CCN(c3ccc(CC(NC(=O)c4c(C)cc(C)cc4C)C(=O)O)cc3)CC2)c1 (stereo not drawn) : > 7.00
Cc1ccnc(NCC2CCN(c3ccc(CC(NC(=O)C(c4ccccc4)C(C)C)C(=O)O)cc3)CC2)c1 (stereo not drawn) : > 7.00
Cc1ccnc(NCC2CCN(c3ccc(CC(NC(=O)C4(C)CCCCC4)C(=O)O)cc3)CC2)c1 (stereo not drawn) : > 7.00
Cc1cc(C)c(C(=O)NC(Cc2ccc(N3CCC(CNc4nc5ccccc5[nH]4)CC3)cc2)C(=O)O)c(C)c1 (stereo not drawn) : < 7.00
Cc1ccnc(NCC2CC(=O)N(c3ccc(CC(NC(=O)c4c(C)cc(C)cc4C)C(=O)O)cc3)C2)c1 (stereo not drawn) : > 7.00

[Q] What does the record list as pIC50 for CCc1cc(F)cc(C)c1C(=O)NC(Cc1ccc(N2CCC(CNc3ccccn3)CC2)cc1)C(=O)O (stereo not drawn) ?
[A] > 7.00

[Q] What does the record list as pIC50 for Cc1cc(C)c(C(=O)NC(Cc2ccc(N3CC(CNc4ccccn4)C3)cc2)C(=O)O)c(C)c1 (stereo not drawn) ?
[A] < 7.00

[Q] What does the record list as pIC50 for Cc1cc(C)c(C(=O)NC(Cc2ccc(N3CCC(c4ccc5c(n4)NCCC5)CC3)cc2)C(=O)O)c(C)c1 (stereo not drawn) ?
[A] > 7.00

[Q] What does the record list as pIC50 for Cc1ccnc(NCC2CCN(c3ccc(CC(NC(=O)c4c(C)cc(C)cc4C)C(=O)O)cc3)CC2)c1 (stereo not drawn) ?
[A] > 7.00

[Q] What does the record list as pIC50 for Cc1ccnc(NCC2CCN(c3ccc(CC(NC(=O)c4ccccc4)C(=O)O)cc3)CC2)c1 (stereo not drawn) ?
[A] > 7.00

[Q] What does the record list as pIC50 for CCCNC(=O)NCC1CCN(c2ccc(CC(NC(=O)c3c(C)cc(C)cc3C)C(=O)O)cc2)CC1 (stereo not drawn) ?
[A] > 7.00

[Q] What does the record list as pIC50 for CC1(C(=O)NC(CC2CCN(C(=O)CCc3ccc4c(n3)NCCC4)CC2)C(=O)O)CCCCC1 (stereo not drawn) ?
[A] > 7.00

Each recorded value in this set is attributed to patent US8927534B2.
